Biological target: human IL-23R (Homo sapiens)
Sequence (Q5VWK5 22-629): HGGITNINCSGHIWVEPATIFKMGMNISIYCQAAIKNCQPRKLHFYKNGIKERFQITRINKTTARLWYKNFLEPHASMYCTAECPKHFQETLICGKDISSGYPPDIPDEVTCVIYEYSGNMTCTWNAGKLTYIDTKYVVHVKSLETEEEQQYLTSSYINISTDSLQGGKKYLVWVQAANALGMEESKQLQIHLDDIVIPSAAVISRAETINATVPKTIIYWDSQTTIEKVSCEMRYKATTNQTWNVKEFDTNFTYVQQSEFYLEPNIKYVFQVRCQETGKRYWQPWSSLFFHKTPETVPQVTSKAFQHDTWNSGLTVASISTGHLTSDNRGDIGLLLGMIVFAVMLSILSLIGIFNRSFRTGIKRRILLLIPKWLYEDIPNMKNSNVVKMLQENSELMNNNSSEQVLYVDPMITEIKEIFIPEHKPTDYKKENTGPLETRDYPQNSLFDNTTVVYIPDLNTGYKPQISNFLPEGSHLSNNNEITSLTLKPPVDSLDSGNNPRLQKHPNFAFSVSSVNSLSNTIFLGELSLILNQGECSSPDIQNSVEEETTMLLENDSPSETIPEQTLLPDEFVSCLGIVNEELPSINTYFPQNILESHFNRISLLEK
*1 amine or outer side, *2 acyl side, *3 side chain or, on linkers, in order; H or OH if unused. Where a SMILES comes first, the peptide text is derived from it. Bridges are numbered along the chain shown (N, C = ends). [ ]: non-standard residue; d: D form. hAad = O=C([C@H](CCCCC(=O)[*:3])N[*:1])[*:2]; Trp(1-Me) = Cn1cc(C[C@H](N)C(=O)O)c2ccccc21; 2Nal = N[C@@H](Cc1ccc2ccccc2c1)C(=O)O; AEF = NCCOc1ccc(C[C@H](N)C(=O)O)cc1; 3Pal = N[C@@H](Cc1cccnc1)C(=O)O; αMeL = CC(C)C[C@](C)(N)C(=O)O; dDab = NCC[C@@H](N)C(=O)O; Dab = NCC[C@H](N)C(=O)O; βAla = NCCC(=O)O
metric.name: pIC50
// pIC50: -log10(molar conc.)

COc1ccc(C[C@@H]2NC(=O)[C@@H]3CCC(=O)N[C@@H](CCCCNC(=O)CC[C@@H](C(=O)N[C@@H](CCCCNC(=O)Cc4ccncc4)C(N)=O)NC(=O)[C@](C)(CC(C)C)NC(=O)[C@H](Cc4ccc5ccccc5c4)NC2=O)C(=O)N[C@@H]([C@@H](C)O)C(=O)N[C@@H](C(C)C)C(=O)N[C@@H](Cc2c[nH]c4ccccc24)C(=O)N[C@@H](CCC(N)=O)C(=O)N3)cc1 | 6.54

Request: Please supply the value of reported pIC50 for the item `CNC(=O)[C@H](Cc1cccnc1)NC(=O)[C@H](CCN)NC(=O)[C@@H]1CCC(=O)NCCCC[C@@H]2NC(=O)CC[C@H](NC(=O)[C@H](CCC(N)=O)NC(=O)[C@H](Cc3c[nH]c4ccccc34)NC(=O)CCNC2=O)C(=O)N[C@@H](Cc2cccnc2)C(=O)N[C@@H](Cc2ccc3ccccc3c2)C(=O)N[C@@](C)(CC(C)C)C(=O)N1`
Response: 9.42

Request: Please supply the value of reported pIC50 for the item CNC(=O)[C@H](Cc1cccnc1)NC(=O)[C@H](CCN)NC(=O)[C@@H]1CCC(=O)NCCCC[C@@H]2NC(=O)CC[C@H](NC(=O)[C@H](CCC(N)=O)NC(=O)[C@H](Cc3cn(C)c4ccccc34)NC(=O)CCNC2=O)C(=O)N[C@@H](Cc2ccc(OCCN)cc2)C(=O)N[C@@H](Cc2ccc3ccccc3c2)C(=O)N[C@@](C)(CC(C)C)C(=O)N1 [Compound 79] (K[βAla][Trp(1-Me)]QE[AEF][2Nal][αMeL]E[Dab][3Pal]-NHMe; lactam 1-9, N-5)
Response: 10.70

Request: Please supply the value of reported pIC50 for the item `CNC(=O)[C@H](Cc1cccnc1)NC(=O)[C@H](Cc1ccccn1)NC(=O)[C@@H]1CCC(=O)NCCCC[C@@H]2NC(=O)CC[C@H](NC(=O)[C@H](CCC(N)=O)NC(=O)[C@H](Cc3c[nH]c4ccccc34)NC(=O)CCNC2=O)C(=O)N[C@@H](Cc2ccc(OCCN)cc2)C(=O)N[C@@H](Cc2ccc3ccccc3c2)C(=O)N[C@@](C)(CC(C)C)C(=O)N1`
Response: 10.28

Request: Please supply the value of reported pIC50 for the item CC(C)C[C@]1(C)NC(=O)[C@H](Cc2ccc3ccccc3c2)NC(=O)[C@H](Cc2ccc(OCCN)cc2)NC(=O)[C@@H]2CC(=O)N[C@H](CCNC(=O)CCCC[C@@H](C(=O)N[C@@H](CCN)C(=O)N[C@@H](Cc3cccnc3)C(N)=O)NC1=O)C(=O)N[C@@H]([C@@H](C)O)C(=O)N[C@@H](C(C)C)C(=O)N[C@@H](Cc1c[nH]c3ccccc13)C(=O)N[C@@H](CCC(N)=O)C(=O)N2 [Compound 9] ([dDab]TVWQD[AEF][2Nal][αMeL][hAad][Dab][3Pal]-NH2; lactam 1-10, N-6)
Response: 9.28
